- target system: Free fatty acid receptor 1 (Homo sapiens)
- test: Positive allosteric modulation of recombinant human GPR40 expressed in HEK293 cells assessed as increase in [3H]-myo-inositol phosphate accumulation measured after 60 mins in absence of human serum by microbeta counting method
- Assay type: functional, cell-based
Recorded measurements of EC50, one per entry
// unit must come after the numeric part

Below, each entry is followed by its recorded EC50 result.
smiles repr	EC50
COc1cc(-c2ccc3c(c2)CC[C@H]3Oc2cccc([C@H](C3CC3)[C@H](C)C(=O)O)c2)c(F)cn1	3 nM
COc1cc(-c2ccc3c(c2)CC[C@H]3Oc2cccc([C@H](C3CC3)[C@H](C)C(=O)O)c2F)c(F)cn1	2 nM
COc1ccc(F)c(-c2ccc3c(c2)CC[C@H]3Oc2cccc([C@H](C3CC3)[C@@H](C)C(=O)O)c2)c1	59 nM
COc1ccc(F)c(-c2ccc3c(n2)CC[C@H]3Oc2cccc([C@H](C3CC3)[C@H](C)C(=O)O)c2)c1	151 nM
COc1ccc(F)c(-c2ccc3c(c2)CC[C@H]3Oc2cccc([C@H](C3CC3)[C@H](C)C(=O)O)c2F)c1	3 nM

Problem: Sample "COc1ccc(F)c(-c2ccc3c(c2)OC[C@@H]3Oc2cccc([C@@H](CC(=O)O)C3CC3)c2)c1" — what was its EC50?
Solution: 16 nM

Problem: Follow-up entry: "COc1ccc(F)c(-c2ccc3c(c2)CC[C@@H]3Oc2cccc([C@H](C3CC3)[C@H](C)C(=O)O)c2)c1"
Solution: 60 nM

Problem: And then "COc1ccc(F)c(-c2ccc3c(c2C2=CCCC2(C)C)CC[C@H]3Oc2cccc([C@H](C3CC3)[C@H](C)C(=O)O)c2)c1" , what is it?
Solution: 326 nM

* * *

- test: Unbound drug level in Wistar Han rat plasma at 1 mg/kg, iv or 2 mg/kg, po measured at 3 hrs
- Type: ADME, organism-based
- condition label: in vivo
Cp(f) reference
# unit: nM | format: bare number

smiles repr	output unit	Cp(f)
COc1ccc(F)c(-c2ccc3c(c2)CC[C@H]3Oc2cccc([C@H](C3CC3)[C@H](C)C(=O)O)c2F)c1	nM	0.5
COc1ccc(F)c(-c2ccc3c(c2)CC[C@H]3Oc2cccc([C@H](C3CC3)[C@H](C)C(=O)O)c2)c1	nM	0.16
COc1cc(-c2ccc3c(c2)CC[C@H]3Oc2cccc([C@H](C3CC3)[C@H](C)C(=O)O)c2F)c(F)cn1	nM	0.3

Field: next compound
Problem: Recorded Cp(f) for "COc1cc(-c2ccc3c(c2)CC[C@H]3Oc2cccc([C@H](C3CC3)[C@H](C)C(=O)O)c2)c(F)cn1" , please?
Solution: 0.57

* * *

- target system: Free fatty acid receptor 1 (Homo sapiens, UniProt O14842)
- Sequence (O14842 whole entry): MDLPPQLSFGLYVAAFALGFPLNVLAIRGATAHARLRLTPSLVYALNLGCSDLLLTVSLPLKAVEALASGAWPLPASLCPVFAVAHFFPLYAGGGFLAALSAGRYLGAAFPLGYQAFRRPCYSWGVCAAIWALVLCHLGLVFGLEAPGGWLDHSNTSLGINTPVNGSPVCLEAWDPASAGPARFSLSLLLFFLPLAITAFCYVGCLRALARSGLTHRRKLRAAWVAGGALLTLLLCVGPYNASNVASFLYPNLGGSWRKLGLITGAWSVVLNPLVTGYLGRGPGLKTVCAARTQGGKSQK
- test: Positive allosteric modulation of recombinant human GPR40 expressed in HEK293 cells assessed as increase in [3H]-myo-inositol phosphate accumulation measured after 60 mins in presence of 100% human serum by microbeta counting method relative to control
- Assay type: functional, cell-based
The following compounds are listed with their measured Activity values.
Give the value in % but do not write % after it.

smiles repr	target system	metric	output unit	obs value
COc1ccc(F)c(-c2ccc3c(c2C2=CCCC2(C)C)CC[C@H]3Oc2cccc([C@H](C3CC3)[C@H](C)C(=O)O)c2)c1	Free fatty acid receptor 1 (Homo sapiens, UniProt O14842)	Activity	%	110

Problem: Return Activity measured with Free fatty acid receptor 1 (Homo sapiens, UniProt O14842) given this compound: "COc1ccc(F)c(-c2ccc3c(c2)CC[C@@H]3Oc2cccc([C@H](C3CC3)[C@H](C)C(=O)O)c2)c1"
Solution: 84

Problem: What do you get for "COc1cc(-c2ccc3c(c2)CC[C@H]3Oc2cccc([C@H](C3CC3)[C@H](C)C(=O)O)c2)c(F)cn1" ?
Solution: 446

Problem: What do we get for "COc1ccc(F)c(-c2ccc3c(c2)OC[C@@H]3Oc2cccc([C@@H](CC(=O)O)C3CC3)c2)c1" ?
Solution: 138

Problem: Do the same for "COc1ccc(F)c(-c2cnc3c(c2)CC[C@H]3Oc2cccc([C@H](C3CC3)[C@H](C)C(=O)O)c2)c1" please
Solution: 107

Problem: Now give it for "COc1ccc(F)c(-c2ccc3c(c2F)CC[C@H]3Oc2cccc([C@H](C3CC3)[C@H](C)C(=O)O)c2)c1" too.
Solution: 297

Problem: Moving on to the next compound: "COc1ccc(F)c(-c2ccc3c(c2)CC[C@H]3Oc2cccc([C@@H](CC(=O)O)C3CC3)c2)c1"
Solution: 131

Problem: Here is the next compound: "COc1ccc(F)c(-c2cc3c(cn2)[C@H](Oc2cccc([C@H](C4CC4)[C@H](C)C(=O)O)c2)CC3)c1"
Solution: 221
